meta.source: the supplement of paper PMC11208160

experiment: recombinant barcode read abundance after kanamycin selection (control-corrected) (log10(CPM+1)); higher = more efficient recombination; sequences stand for … in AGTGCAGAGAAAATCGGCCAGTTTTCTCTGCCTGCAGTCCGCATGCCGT…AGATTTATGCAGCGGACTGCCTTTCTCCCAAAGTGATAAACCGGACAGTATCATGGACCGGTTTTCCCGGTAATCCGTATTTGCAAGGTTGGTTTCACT; site = the 11-nt target;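 note: IS621 recombinase and bridge RNA in Escherichia coli cells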
Collected recombinant barcode read abundance (log10) values appear next to each entry.
test.readout: recombinant barcode read abundance (log10)

ATATGCGCTTGGGTTCTAACCTGTTGCCG (site ATATGGGCTCG) :: 0.0781
GACATATCTTGGGTTCTAACCTGTTGCTG (site GACATATCTTG) :: 0.165
CTTCATCCTTGGGTTCTAACCTGTTGCCT (site CTTCAACCTAG) :: 0.0199
CGTACCTCTTGGGTTCTAACCTGTTGCTC (site CGTACCTCTCA) :: 0.0772
TGTCTGGCTTGGGTTCTAACCTGTTGCCT (site AGTCTGGCTAG) :: 0.215
